Numbers sourced from ChEMBL document CHEMBL4622872.

experiment: Half life in Beagle dog at 1 mg/kg, iv or po by LC-MS/MS analysis; format: ADME, organism-based, Canis lupus familiaris; details: in vivo
measured_parameter: half-life (min)

[[record]]
molecule = "Cn1nccc1[C@H]1CCCC[C@@H]1Oc1cc(F)c(S(=O)(=O)Nc2ccncn2)cc1Cl [DS-1971]"
unit_symbol = "min"
readout_number = 240


* * *

experiment: Tmax in female cynomolgus monkey at 1000 mg/kg administered for 9 months measured 24 hrs post last dose with 1 month recovery; format: ADME, organism-based, Macaca fascicularis; conditions: in vivo
measured_parameter: Tmax (h)

[[record]]
smiles = "Cn1nccc1[C@H]1CCCC[C@@H]1Oc1cc(F)c(S(=O)(=O)Nc2ccncn2)cc1Cl"
readout_number = 1.2


* * *

experiment: AUC (infinity) in cynomolgus monkey at 1 mg/kg, iv or po by LC-MS/MS analysis; format: ADME, organism-based, Macaca fascicularis; conditions: in vivo
measured_parameter: AUC(0-inf) (µM·h)

[[record]]
smiles = "Cn1nccc1[C@H]1CCCC[C@@H]1Oc1cc(F)c(S(=O)(=O)Nc2ccncn2)cc1Cl"
measured_parameter = "AUC(0-inf)"
unit_symbol = "µM·h"
readout_number = 2.06


* * *

assay: Aqueous thermodynamic solubility of the compound at pH 6.8 measured after 4 hrs by UV-HPLC analysis; format: physicochemical; conditions: buffer, pH 6.8; read-out: Therm_solubility
measured_parameter: solubility thermodynamic at 4 h (µM)

[[record]]
compound = "Cn1nccc1[C@H]1CCCC[C@@H]1Oc1cc(F)c(S(=O)(=O)Nc2ccncn2)cc1Cl (racemic)"
unit_symbol = "µM"
qualifying_sign = ">"
readout_number = 2000

[[record]]
compound = "Cn1nccc1[C@H]1CCC[C@@H]1Oc1cc(F)c(S(=O)(=O)Nc2ccncn2)cc1F (racemic)"
unit_symbol = "µM"
qualifying_sign = "="
readout_number = 740

[[record]]
compound = "Cn1nccc1[C@H]1CCC[C@@H]1Oc1cc(F)c(S(=O)(=O)Nc2ccncn2)c(F)c1 (racemic)"
unit_symbol = "µM"
qualifying_sign = "="
readout_number = 1800


* * *

assay: Distribution coefficient, log D of the compound in 1-octanol and PBS buffer at pH 7.4 measured after 30 mins by LC-MS analysis; format: physicochemical; settings: 1-octanol/PBS buffer
measured_parameter: logD at 0.5 h

[[record]]
molecule = "Cn1nccc1[C@H]1CCC[C@@H]1Oc1ccc(S(=O)(=O)Nc2ccncn2)c(F)c1F (racemic)"
readout_number = 0.4

[[record]]
molecule = "Cc1cc(S(=O)(=O)Nc2ccncn2)c(F)cc1O[C@H]1CCCC[C@@H]1c1ccnn1C (racemic)"
readout_number = 0.9

[[record]]
molecule = "Cn1nccc1[C@H]1CCCC[C@@H]1Oc1cc(F)c(S(=O)(=O)Nc2ccncn2)cc1F (racemic)"
readout_number = 0.3

[[record]]
molecule = "Cn1nccc1[C@H]1CCCC[C@@H]1Oc1cc(F)c(S(=O)(=O)Nc2ncns2)cc1F (racemic)"
readout_number = 0.7

[[record]]
molecule = "Cc1cc(S(=O)(=O)Nc2ccncn2)c(F)cc1O[C@H]1CCC[C@@H]1c1ccnn1C (racemic)"
readout_number = 0.9

[[record]]
molecule = "Cn1nccc1[C@H]1CCCC[C@@H]1Oc1cc(F)c(S(=O)(=O)Nc2cscn2)cc1F (racemic)"
readout_number = 1.8

[[record]]
molecule = "Cn1nccc1[C@H]1CCC[C@@H]1Oc1cc(F)c(S(=O)(=O)Nc2ccncn2)cc1Cl (racemic)"
readout_number = 0.9

[[record]]
molecule = "Cc1nsc(NS(=O)(=O)c2cc(F)c(O[C@H]3CCC[C@@H]3c3ccnn3C)cc2F)n1 (racemic)"
readout_number = 0.9

